# MEASURED TARGET: PIK3Ca_h (Homo sapiens, UniProt P42336)
# Construct: purchased Eurofins DiscoveRx Corporation
# Sequence (P42336 whole entry): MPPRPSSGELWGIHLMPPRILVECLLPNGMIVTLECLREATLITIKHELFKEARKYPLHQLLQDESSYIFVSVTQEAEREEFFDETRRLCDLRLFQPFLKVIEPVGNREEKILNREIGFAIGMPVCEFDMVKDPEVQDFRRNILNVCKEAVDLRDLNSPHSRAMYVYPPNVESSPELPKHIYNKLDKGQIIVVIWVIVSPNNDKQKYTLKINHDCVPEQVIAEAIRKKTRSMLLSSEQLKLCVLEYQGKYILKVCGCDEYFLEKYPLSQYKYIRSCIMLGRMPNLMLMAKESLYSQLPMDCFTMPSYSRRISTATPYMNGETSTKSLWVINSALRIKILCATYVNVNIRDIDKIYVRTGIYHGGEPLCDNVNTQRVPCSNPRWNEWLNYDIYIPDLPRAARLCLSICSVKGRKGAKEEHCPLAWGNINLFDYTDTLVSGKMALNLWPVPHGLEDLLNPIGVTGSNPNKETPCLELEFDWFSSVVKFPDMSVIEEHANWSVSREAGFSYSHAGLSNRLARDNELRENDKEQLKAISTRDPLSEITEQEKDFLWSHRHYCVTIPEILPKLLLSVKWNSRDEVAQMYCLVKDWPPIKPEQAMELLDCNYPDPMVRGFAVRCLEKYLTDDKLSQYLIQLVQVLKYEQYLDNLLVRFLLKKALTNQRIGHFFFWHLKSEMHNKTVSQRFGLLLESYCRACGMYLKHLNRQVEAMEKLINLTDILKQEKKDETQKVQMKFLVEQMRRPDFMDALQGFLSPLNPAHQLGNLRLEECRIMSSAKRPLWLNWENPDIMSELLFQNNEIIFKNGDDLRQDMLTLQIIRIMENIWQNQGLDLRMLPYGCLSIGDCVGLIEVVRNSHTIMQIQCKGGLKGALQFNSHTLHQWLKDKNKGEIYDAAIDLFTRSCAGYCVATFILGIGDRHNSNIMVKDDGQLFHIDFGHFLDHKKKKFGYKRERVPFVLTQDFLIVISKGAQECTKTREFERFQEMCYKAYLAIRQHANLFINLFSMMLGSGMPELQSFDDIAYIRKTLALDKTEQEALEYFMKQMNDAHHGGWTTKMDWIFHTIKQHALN
# ASSAY PROCEDURE: Enzyme binding assay (KINOMEscan)
# MEASUREMENT PARAMETERS: Eurofins DiscoveRx
// classify: if (Kd < 40 nM) Yes else No

In plain terms, does CC(Nc1cc(F)cc(F)c1)c1cc(NC2=NC(C)(C)CO2)cc2c(=O)cc(N3CCOCC3)oc12 (stereo not shown) come in under 40 nM for Kd?
No

In plain terms, does `C[C@@H]1CN(c2cc(=O)c3cc(C(=O)N(C)C)cc(CN4CCc5c(F)cccc54)c3o2)CCO1` come in under 40 nM for Kd?
Yes

In plain terms, does `C[C@@H](Nc1cc(F)cc(F)c1)c1cc(C(=O)N2CC[C@H](N(C)C)C2)cn2c(=O)cc(N3CCOCC3)nc12` come in under 40 nM for Kd?
No

In plain terms, does `CN(C)C(=O)c1cc(CN2CCc3c(F)cc(F)cc32)c2oc(N3CCOCC3)cc(=O)c2c1` come in under 40 nM for Kd?
No

In plain terms, does `C[C@@H]1CN(c2cc(=O)c3cc(C(=O)N(C)C)cc(CN4CCc5c(F)cc(F)cc54)c3o2)CCO1` come in under 40 nM for Kd?
Yes

In plain terms, does CC(Nc1cc(F)cc(F)c1)c1cc(C(=O)N2CCC(N(C)C)C2)cn2c(=O)cc(N3CCOCC3)nc12 (stereo not shown) [Compound 48] come in under 40 nM for Kd?
No

In plain terms, does CNS(=O)(=O)c1cc(C(C)Nc2cc(F)cc(F)c2)c2oc(N3CCOCC3)cc(=O)c2c1 (stereo not shown) come in under 40 nM for Kd?
Yes

----------
# MEASURED TARGET: PIK3Cb_h (Homo sapiens)
# Construct: purchased Eurofins DiscoveRx Corporation
# Sequence (P42338 whole entry): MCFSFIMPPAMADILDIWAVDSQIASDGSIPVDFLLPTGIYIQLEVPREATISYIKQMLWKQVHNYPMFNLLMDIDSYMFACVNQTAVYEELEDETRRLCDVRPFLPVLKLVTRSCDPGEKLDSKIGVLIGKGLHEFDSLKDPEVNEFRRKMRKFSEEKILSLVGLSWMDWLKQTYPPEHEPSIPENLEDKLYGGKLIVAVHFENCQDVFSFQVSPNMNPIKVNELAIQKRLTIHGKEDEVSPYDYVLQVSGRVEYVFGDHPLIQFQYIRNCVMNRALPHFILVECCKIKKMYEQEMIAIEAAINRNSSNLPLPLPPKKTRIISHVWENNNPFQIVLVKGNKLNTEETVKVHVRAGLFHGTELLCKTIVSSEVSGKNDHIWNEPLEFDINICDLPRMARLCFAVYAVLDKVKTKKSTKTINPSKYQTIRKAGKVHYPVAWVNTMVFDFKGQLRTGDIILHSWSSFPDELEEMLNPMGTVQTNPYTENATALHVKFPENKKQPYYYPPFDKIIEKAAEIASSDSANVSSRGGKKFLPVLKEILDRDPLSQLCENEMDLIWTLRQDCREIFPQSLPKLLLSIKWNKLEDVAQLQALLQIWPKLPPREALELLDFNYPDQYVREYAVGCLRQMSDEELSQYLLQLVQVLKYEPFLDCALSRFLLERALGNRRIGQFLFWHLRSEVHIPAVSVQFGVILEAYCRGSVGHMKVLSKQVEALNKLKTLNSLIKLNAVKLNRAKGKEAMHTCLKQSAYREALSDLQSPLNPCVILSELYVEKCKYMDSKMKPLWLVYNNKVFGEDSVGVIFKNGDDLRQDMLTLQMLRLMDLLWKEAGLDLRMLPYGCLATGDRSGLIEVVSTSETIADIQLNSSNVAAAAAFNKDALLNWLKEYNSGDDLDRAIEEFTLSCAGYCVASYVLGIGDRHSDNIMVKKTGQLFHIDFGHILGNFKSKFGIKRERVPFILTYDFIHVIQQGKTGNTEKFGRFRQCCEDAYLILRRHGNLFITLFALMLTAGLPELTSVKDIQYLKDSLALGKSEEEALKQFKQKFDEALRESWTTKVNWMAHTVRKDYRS
# ASSAY PROCEDURE: Enzyme binding assay (KINOMEscan)
# MEASUREMENT PARAMETERS: Eurofins DiscoveRx
# Experimental: Kinase enzyme binding affinities of compounds disclosed herein were determined using the KINOMEscan technology performed by Eurofins DiscoveRx Corporation, San Diego, California, USA (www.eurofinsdiscoveryservices.com). Table 2 reports the obtained PIK3β Kd values (nM) of, with the PIK3β Kd being the inhibitor binding constant. Table 3 reports the obtained Kd values (nM), with the Kd being the inhibitor binding constant: […]
PROPERTY MEASURED: Kd (nM)
Report the value in nM with no unit label.

Given the molecule `C[C@@H]1CN(c2cc(=O)c3cc(C(=O)N(C)C)cc(CN4CCc5c(F)cc(F)cc54)c3o2)CCO1` , what is its reported Kd?
0.075

Given the molecule CC(Nc1cc(F)cc(F)c1)c1cc(C(=O)N2CC[C@@H](N(C)C)C2)cc2c(=O)cc(N3CCOCC3)oc12 (stereo partly drawn) , what is its reported Kd?
0.17

Given the molecule `O=C(c1cc(CN2CCc3c(F)cc(F)cc32)c2oc(N3CCOCC3)cc(=O)c2c1)N1CCCC1` , what is its reported Kd?
0.26

Given the molecule CC(Nc1cc(F)cc(F)c1)c1cc(C(=O)N2CCC(N(C)C)C2)cn2c(=O)cc(N3CCOCC3)nc12 (stereo not drawn) [Compound 48] , what is its reported Kd?
0.26

Given the molecule CC(Nc1cc(F)cc(F)c1)c1cc(NS(C)(=O)=O)cc2c(=O)cc(N3CCOCC3)oc12 (stereo not drawn) , what is its reported Kd?
0.14

Given the molecule CC(Nc1cc(F)cc(F)c1)c1cc(NC2=NC(C)(C)CO2)cc2c(=O)cc(N3CCOCC3)oc12 (stereo not drawn) , what is its reported Kd?
0.31

Given the molecule `C[C@@H]1CN(c2cc(=O)c3cc(C(=O)N(C)C)cc(CN4CCc5c(F)cccc54)c3o2)CCO1` , what is its reported Kd?
1

Given the molecule CC1Cc2c(F)cccc2N1Cc1cc(C(=O)N(C)C)cc2c(=O)cc(N3CCOCC3)oc12 (stereo not drawn) , what is its reported Kd?
0.49

Given the molecule CC1Cc2c(F)cc(F)cc2N1C(C)c1cc(C(=O)N(C)C)cc2c(=O)cc(N3CCOCC3)oc12 (stereo not drawn) , what is its reported Kd?
0.52
